# System: MDA-MB-231
# PROTOCOL NOTES: NCI tumour cell line growth inhibition, 48 h
Active and inactive are the calls of the source. Cut-off read from the data, not from the text of the source: active = GI50 up to about 1.1 µM and inactive = higher.
Allowed answers: true (active), false (inactive)

# input What classification did "Cc1cc(OCc2nn(CN3CCN(C)CC3)c(=S)n2/N=C/c2ccc(-c3ccc(Cl)cc3Cl)o2)ccc1Cl" end up with in this test?
# output false

# input What classification did "Cc1cc(S(=O)(=O)Nc2nc3ccccc3nc2-c2cccc([N+](=O)[O-])c2)c(S)cc1Cl" end up with in this test?
# output false

# input What classification did "COc1c(C2(c3ccc(F)cc3)SCCCS2)c(=O)c1=O" end up with in this test?
# output false

# input What classification did "O=P(O)(O)CN1CCNCCN(CP(=O)(O)O)CCN(CP(=O)(O)O)CCNCC1" end up with in this test?
# output false

# input What classification did "O=C(N/N=C\c1ccc([N+](=O)[O-])s1)c1ccncc1" end up with in this test?
# output false

# input What classification did CCCCCCCC/C=C1\CCC(CN2CCOCC2)C1=O (stereo unspecified) end up with in this test?
# output false

# input What classification did O=C1CC(C(O)CO)CC(=O)N1 (stereo unspecified) end up with in this test?
# output false

# input What classification did "COC(=O)Cn1c(=O)oc2nc(-c3ccccc3)cc(C(F)(F)F)c21" end up with in this test?
# output false

# input What classification did CCN(CCO)CC1COc2ccccc2O1 (stereo unspecified) end up with in this test?
# output false

# input What classification did "CC1=C(C(=O)Nc2ccccc2)C2(CCCCC2)C(C#N)=C(SCC(=O)Nc2ccc(Br)cc2)N1" end up with in this test?
# output false

# input What classification did "Oc1c(CN2CCOCC2)ccc(CN2CCOCC2)c1O" end up with in this test?
# output false

# input What classification did O=C(O)C1NCCc2c1[nH]c1ccccc21 (stereo unspecified) end up with in this test?
# output false

# input What classification did O=C1NN=C(c2c[nH]c3ccccc23)CC1NCc1ccccc1 (stereo unspecified) end up with in this test?
# output false

# input What classification did CC1CN=C(Nc2ccccc2)S1 (stereo unspecified) end up with in this test?
# output false

# input What classification did "CCC(=O)/C=C/c1ccccc1" end up with in this test?
# output false

# input What classification did CCC1OC2(C)CC(C#N)(C#N)C1(C#N)C(=N)O2 (stereo unspecified) end up with in this test?
# output false

# input What classification did COC(=O)[C@]1(c2cc3ccccc3[nH]2)CC2CN(CC(=O)N(C)OC)C1C1OC(C)(C)OC21 (stereo partly specified) end up with in this test?
# output false

# input What classification did "O=C(O)CO[C@@]12C#C/C=C\C#C[C@@H]3N(C(=O)Oc4ccccc4)c4ccccc4[C@]14O[C@@]34CCC2" end up with in this test?
# output false

# input What classification did "COc1ccc(/C=C(\C#N)c2nc(N)nc(N3N=C(C)CC3(C)C)n2)c(O)c1" end up with in this test?
# output false

# input What classification did N#CCCSC1SC(=C2SC3=C(SCCS3)S2)SC1SCCC#N (stereo unspecified) end up with in this test?
# output false

# input What classification did C[C@@H]1[C@@H](C)C(c2ccccc2)O[Si]1(C(C)(C)C)C(C)(C)C (stereo partly specified) end up with in this test?
# output false

# input What classification did "O=C(CNc1cccc(Cl)c1)Nn1c(-c2ccccc2)nc2ccccc2c1=O" end up with in this test?
# output false

# input What classification did "CCOC(=O)COc1cc(-c2ccccc2F)nc2cc3c(cc12)OCO3" end up with in this test?
# output false

# input What classification did "CCOP(=O)(OCC)/C(C#N)=C/c1cccn1C" end up with in this test?
# output false

# input What classification did CC(=O)OC(C)c1cc2c(s1)C(=O)c1sccc1C2=O (stereo unspecified) end up with in this test?
# output false

# input What classification did "NC12c3c4cccc3Oc3cccc(c31)Oc1cccc(c12)O4" end up with in this test?
# output false

# input What classification did CC(C)C[S+]1C2=C(CC(C)(C)CC2=O)[N-]c2ccccc21 (stereo unspecified) end up with in this test?
# output false

# input What classification did "Cc1nc(C(N)=S)sc1C(=O)C/C(=N/N)C(=O)Nc1cccc(Cl)c1C" end up with in this test?
# output false

# input What classification did O=C(OC1C#CCSCC#C/C=C\1)c1ccc2c(c1)C(=O)c1ccccc1C2=O (stereo unspecified) end up with in this test?
# output false

# input What classification did O=C1/C(=C/c2cccs2)NC(=S)N1CN1CCCC(CO)C1 (stereo unspecified) end up with in this test?
# output false

# input What classification did "Fc1ccc(Nc2nc(Cl)c3nc[nH]c3n2)cc1Cl" end up with in this test?
# output false

# input What classification did "CCOC(=O)NNC(=O)NCc1cccc(CNC(=O)NNC(=O)OCC)c1" end up with in this test?
# output false

# input What classification did CCCC(C)c1c(Cl)nc(Cl)nc1Cl (stereo unspecified) end up with in this test?
# output false

# input What classification did CC(=O)Nc1ccc2c3c(cc(O)c2c1)N(C(=O)CCCCCC(=O)N1CC(CCl)c2c1cc(O)c1cc(NC(C)=O)ccc21)CC3CCl (stereo unspecified) end up with in this test?
# output true

# input What classification did "Cc1ccc(Cc2n[nH]c(=O)[nH]2)cc1" end up with in this test?
# output false

# input What classification did "COc1ccc(-c2nc(O)c3ccccc3n2)cc1" end up with in this test?
# output false

# input What classification did "C=C(COC(=O)C(C)C)[C@H]1Oc2ccc(C(C)=O)cc2[C@@H]1OC(=O)C(C)C" end up with in this test?
# output false

# input What classification did CC(=O)N1C(CCc2ccccc2)CC(C)(C=O)C1Cc1ccc(O[Si](C(C)C)(C(C)C)C(C)C)cc1 (stereo unspecified) end up with in this test?
# output false

# input What classification did "O=C(CN1c2ccccc2Sc2ccccc21)n1cnc2ccccc21" end up with in this test?
# output false

# input What classification did CCN1C[C@]2(C)CC[C@H](OC)C34C5C[C@@H]6[C@@H](OC)C[C@@](OC)(C5[C@H]6OCc5ccccc5)C(C13)[C@H](OC(C)=O)[C@@H]42 (stereo partly specified) end up with in this test?
# output false

# input What classification did "O=C1ON=C2C3CC4CC12CC1(C3)C(=O)ON=C41" end up with in this test?
# output false

---

# Tested on: HL-60
# PROTOCOL NOTES: NCI tumour cell line growth inhibition, 48 h
The source made the active and inactive calls. Rule as the data show it: active = GI50 up to about 1.1 µM and inactive = higher.
Allowed answers: T = active, F = inactive

# input What classification did "CCCCC#C[I+]c1ccccc1" end up with in this test?
# output F

# input What classification did "NCOC(=O)Cc1ccc(Br)cc1" end up with in this test?
# output F

# input What classification did O=C(O)c1c(CC(Cc2ccc3c(c2)CCC3)C(=O)O)ccc2c1CCC2 (stereo unspecified) end up with in this test?
# output F

# input What classification did O=C1NN=C(c2c[nH]c3ccccc23)CC1NCc1ccccc1 (stereo unspecified) end up with in this test?
# output F

# input What classification did CC1CC2OC(=O)C3CC(O)CC(=C23)[C@@]12C[C@@H](c1ccoc1)OC2=O (stereo partly specified) end up with in this test?
# output F

# input What classification did CC(C)(C)OC(=O)NC(Cc1ccc([N+](=O)[O-])cc1)C(=O)NC(CCCCNC(=O)OCc1ccccc1)C(=O)ON1C(=O)CCC1=O (stereo unspecified) end up with in this test?
# output F

# input What classification did "COc1cc2c(c(OC)c1OC)-c1ccc(OC)c(=O)cc1[C@@H](N(C)C=O)CC2" end up with in this test?
# output T

# input What classification did "CC(C)(C)OC(=O)NCCC(N)=S" end up with in this test?
# output F

# input What classification did N#CCCSC1SC(=C2SC3=C(SCCS3)S2)SC1SCCC#N (stereo unspecified) end up with in this test?
# output F

# input What classification did CC1(C(=O)O)CCOc2ccccc21 (stereo unspecified) end up with in this test?
# output F

# input What classification did Cc1c(Cl)cccc1NC(=O)CC1C(=O)Nc2ccccc2S1(=O)=O (stereo unspecified) end up with in this test?
# output F

---

# Test system: HCT-116
# PROTOCOL NOTES: NCI tumour cell line growth inhibition, 48 h
Activity calls are given as the source filed them. No stated cut-off is given here; in the data, active = GI50 up to about 1.1 µM and inactive = higher.
Allowed answers: active, inactive

# input What classification did "O=P1(Oc2ccc(Cl)cc2Cl)Oc2cc3ccccc3cc2O1" end up with in this test?
# output inactive

# input What classification did "O=[N+]([O-])c1cccc(-c2cn3c(n2)Cc2ccccc2C3)c1" end up with in this test?
# output inactive

# input What classification did "CCOc1cccc2nc3cccc(C(=O)NCCN(C)C)c3nc12" end up with in this test?
# output active

# input What classification did "Oc1ccc2ccccc2c1/N=N/c1cc(Cl)ccc1Cl" end up with in this test?
# output inactive

# input What classification did "CN(C)c1nc(N(C)c2ccccc2)[s+]s1" end up with in this test?
# output inactive

# input What classification did OCC1OC(c2nc(C3=NCCCN3)cs2)C(O)C1O (stereo unspecified) end up with in this test?
# output inactive
